TARGET OR SYSTEM: recombinant mTOR (Homo sapiens)
Construct: FLAG; made in house
Sequence (P42345 1362-2549): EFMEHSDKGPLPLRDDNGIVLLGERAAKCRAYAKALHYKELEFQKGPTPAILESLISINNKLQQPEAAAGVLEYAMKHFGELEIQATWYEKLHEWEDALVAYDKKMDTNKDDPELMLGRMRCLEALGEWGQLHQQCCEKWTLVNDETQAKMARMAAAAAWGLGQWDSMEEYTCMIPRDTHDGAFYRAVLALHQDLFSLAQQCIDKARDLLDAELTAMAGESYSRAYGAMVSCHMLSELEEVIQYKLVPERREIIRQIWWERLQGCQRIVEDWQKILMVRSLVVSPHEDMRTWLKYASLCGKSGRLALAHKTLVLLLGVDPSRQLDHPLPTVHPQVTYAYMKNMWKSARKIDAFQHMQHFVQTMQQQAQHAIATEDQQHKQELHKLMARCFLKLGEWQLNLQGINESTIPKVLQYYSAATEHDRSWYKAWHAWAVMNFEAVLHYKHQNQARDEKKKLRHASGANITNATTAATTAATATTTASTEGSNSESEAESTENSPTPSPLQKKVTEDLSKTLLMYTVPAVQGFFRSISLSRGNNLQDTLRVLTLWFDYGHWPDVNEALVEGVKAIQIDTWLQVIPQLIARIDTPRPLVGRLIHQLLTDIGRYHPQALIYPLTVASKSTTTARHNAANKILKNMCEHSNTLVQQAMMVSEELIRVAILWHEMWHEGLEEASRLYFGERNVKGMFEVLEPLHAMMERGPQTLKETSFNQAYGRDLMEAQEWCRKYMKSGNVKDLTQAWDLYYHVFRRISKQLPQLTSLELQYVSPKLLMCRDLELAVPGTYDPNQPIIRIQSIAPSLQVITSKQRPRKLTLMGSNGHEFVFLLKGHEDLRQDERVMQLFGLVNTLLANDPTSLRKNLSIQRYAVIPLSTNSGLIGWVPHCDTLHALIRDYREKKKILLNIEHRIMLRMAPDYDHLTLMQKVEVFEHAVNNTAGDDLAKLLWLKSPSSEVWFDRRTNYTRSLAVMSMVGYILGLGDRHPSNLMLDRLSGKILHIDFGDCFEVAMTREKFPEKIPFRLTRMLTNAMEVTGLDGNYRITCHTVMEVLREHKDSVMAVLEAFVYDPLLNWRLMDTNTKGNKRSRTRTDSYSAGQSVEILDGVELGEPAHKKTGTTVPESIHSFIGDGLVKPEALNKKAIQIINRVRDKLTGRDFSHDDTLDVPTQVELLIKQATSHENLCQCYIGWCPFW
EXPERIMENTAL PROTOCOL: In vitro mTOR kinase assay (AlphaScreen)
Type: biochemical
TEST CONTEXT: Test (a); mean of three occasions; read-out: IC50 versus mTOR kinase, mean value
EXPERIMENTAL READOUT: pIC50
Formally, pIC50 is defined as -log10 of the concentration c, with c in mol/L.

Problem: Which pIC50 is listed for `O=S(=O)(CCc1cccc(C(F)(F)F)c1)Cc1cc(N2CCOCC2)nc(-c2ccccn2)n1` ?
Result: 5.27

###

TARGET OR SYSTEM: p110α Type Ia human PI3K (Homo sapiens, UniProt P42336)
Construct: full length DNA of each of the p110α, p110β and p110δ Type Ia human PI3K p110 isoforms; 6-His; made in house
Sequence (P42336 whole entry, canonical isoform): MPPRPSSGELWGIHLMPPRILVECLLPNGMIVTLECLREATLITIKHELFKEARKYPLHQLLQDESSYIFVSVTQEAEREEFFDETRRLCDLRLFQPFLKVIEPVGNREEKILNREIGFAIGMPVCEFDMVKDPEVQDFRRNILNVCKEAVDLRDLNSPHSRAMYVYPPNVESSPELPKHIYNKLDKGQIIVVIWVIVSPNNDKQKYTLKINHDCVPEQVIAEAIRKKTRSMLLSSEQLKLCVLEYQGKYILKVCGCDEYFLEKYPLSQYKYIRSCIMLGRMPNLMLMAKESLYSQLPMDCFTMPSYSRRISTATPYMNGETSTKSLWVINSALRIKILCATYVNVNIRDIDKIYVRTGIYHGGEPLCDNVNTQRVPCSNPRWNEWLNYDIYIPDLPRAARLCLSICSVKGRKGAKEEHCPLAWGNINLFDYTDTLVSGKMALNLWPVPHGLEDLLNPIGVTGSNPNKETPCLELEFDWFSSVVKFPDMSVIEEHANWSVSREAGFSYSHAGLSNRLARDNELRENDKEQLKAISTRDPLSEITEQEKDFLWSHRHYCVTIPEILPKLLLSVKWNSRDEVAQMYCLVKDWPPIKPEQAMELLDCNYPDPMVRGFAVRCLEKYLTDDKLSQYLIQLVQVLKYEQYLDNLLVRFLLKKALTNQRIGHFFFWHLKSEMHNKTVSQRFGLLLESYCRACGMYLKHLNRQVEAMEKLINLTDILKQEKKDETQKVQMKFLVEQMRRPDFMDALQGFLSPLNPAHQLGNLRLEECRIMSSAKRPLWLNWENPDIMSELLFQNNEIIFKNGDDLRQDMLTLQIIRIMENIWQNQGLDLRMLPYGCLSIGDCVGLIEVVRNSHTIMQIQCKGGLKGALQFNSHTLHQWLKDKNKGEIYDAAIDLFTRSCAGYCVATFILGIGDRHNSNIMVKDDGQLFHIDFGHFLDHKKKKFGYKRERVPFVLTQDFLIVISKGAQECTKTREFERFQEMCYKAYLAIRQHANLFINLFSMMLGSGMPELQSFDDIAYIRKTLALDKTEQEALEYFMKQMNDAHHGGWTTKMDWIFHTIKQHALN
Sequence (P27986 whole entry partner, canonical isoform): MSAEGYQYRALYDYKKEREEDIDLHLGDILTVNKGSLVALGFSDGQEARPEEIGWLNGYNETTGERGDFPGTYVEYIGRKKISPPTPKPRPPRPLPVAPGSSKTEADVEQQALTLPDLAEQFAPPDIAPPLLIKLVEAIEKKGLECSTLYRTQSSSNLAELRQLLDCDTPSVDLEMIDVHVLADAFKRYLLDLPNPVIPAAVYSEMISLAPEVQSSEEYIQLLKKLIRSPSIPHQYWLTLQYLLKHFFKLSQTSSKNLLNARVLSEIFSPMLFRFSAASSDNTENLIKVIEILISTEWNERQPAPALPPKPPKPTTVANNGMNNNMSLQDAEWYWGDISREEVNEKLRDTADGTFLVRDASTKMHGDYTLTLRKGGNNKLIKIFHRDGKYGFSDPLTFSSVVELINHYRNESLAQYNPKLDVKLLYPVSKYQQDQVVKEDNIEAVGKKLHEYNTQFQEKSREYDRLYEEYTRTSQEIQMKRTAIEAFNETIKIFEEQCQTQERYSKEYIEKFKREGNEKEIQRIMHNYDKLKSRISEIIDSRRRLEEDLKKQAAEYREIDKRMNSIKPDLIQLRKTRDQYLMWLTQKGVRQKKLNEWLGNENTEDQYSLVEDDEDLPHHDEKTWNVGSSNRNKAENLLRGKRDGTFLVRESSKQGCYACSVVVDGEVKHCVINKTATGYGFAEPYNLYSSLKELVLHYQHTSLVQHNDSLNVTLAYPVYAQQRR
EXPERIMENTAL PROTOCOL: In vitro PI3K enzyme assay (AlphaScreen), p110α
Assay type: biochemical
TEST CONTEXT: Test (b); mean of three occasions; read-out: IC50 versus p110α Type Ia human PI3K, mean value
EXPERIMENTAL READOUT: IC50 (µM)
Numeric answer only, unit µM assumed.

Problem: Which IC50 is listed for `O=S(=O)(CCc1cccc(C(F)(F)F)c1)Cc1cc(N2CCOCC2)nc(-c2ccccn2)n1` ?
Result: 6.8
